Target: Prostaglandin D2 receptor 2 (Homo sapiens, UniProt Q9Y5Y4)
Sequence (Q9Y5Y4 whole entry): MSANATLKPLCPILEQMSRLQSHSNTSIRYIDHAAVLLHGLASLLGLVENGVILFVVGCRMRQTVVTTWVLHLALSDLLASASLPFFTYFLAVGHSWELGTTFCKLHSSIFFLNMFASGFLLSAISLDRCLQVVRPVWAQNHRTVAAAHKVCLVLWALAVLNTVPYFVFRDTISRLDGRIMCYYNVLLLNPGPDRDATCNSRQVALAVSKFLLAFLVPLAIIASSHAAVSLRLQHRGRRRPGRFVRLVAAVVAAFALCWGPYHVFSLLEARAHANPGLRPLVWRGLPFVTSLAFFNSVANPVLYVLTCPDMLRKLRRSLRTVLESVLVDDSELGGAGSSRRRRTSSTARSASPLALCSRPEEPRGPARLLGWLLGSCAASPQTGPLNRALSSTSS
Assay: Displacement of [3H]PGD2 from human prostaglandin D2 receptor in presence of human serum albumin
pIC50: −log10 of the molar value.
Readout: pIC50

>>> test_value("CN([C@@H]1CCc2c(CC(=O)O)c3ccccc3n2C1)S(=O)(=O)c1ccc(F)cc1")
7.70
>>> test_value("CN([C@@H]1CCc2c(c3nccnc3n2CC(=O)O)C1)S(=O)(=O)c1ccc(F)cc1")
6.90
>>> test_value("CN([C@@H]1CCc2c(c3ccncc3n2CC(=O)O)C1)S(=O)(=O)c1ccc(F)cc1")
6.03
>>> test_value("CN([C@@H]1CCc2c(CC(=O)O)c3ccccn3c2C1)S(=O)(=O)c1ccc(F)cc1")
7.34
>>> test_value("O=C(O)CCn1c2c(c3ccccc31)C[C@H](NS(=O)(=O)c1ccc(F)cc1)CC2")
6.12

(I) CN([C@@H]1CCc2c(c3ccccn3c2CC(=O)O)C1)S(=O)(=O)c1ccc(F)cc1
(II) CN([C@@H]1CCc2c(CC(=O)O)c3ncccc3n2C1)S(=O)(=O)c1ccc(F)cc1
Task item: Smaller pIC50 value, I vs II ? I would appreciate it if you answered with the label of your choice.
Reply: II
(II: 4.29, I: 7.21)

====

Target: Prostacyclin receptor (Homo sapiens)
Sequence (P43119 whole entry): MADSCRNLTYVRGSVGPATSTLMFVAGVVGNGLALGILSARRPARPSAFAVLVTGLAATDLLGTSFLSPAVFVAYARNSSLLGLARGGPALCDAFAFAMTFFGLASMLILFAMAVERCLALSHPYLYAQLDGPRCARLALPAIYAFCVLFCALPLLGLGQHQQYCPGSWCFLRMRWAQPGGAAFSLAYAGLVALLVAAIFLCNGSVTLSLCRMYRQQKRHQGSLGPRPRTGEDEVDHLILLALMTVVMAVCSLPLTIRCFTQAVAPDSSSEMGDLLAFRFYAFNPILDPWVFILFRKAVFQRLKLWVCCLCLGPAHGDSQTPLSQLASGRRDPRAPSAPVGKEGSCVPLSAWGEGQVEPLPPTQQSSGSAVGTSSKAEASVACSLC
Assay: Displacement of [3H]iloprost from human prostacyclin receptor expressed in human 293 cell membrane
Readout: IC50

// known answers, use as guide
>>> test_value("CN([C@@H]1CCc2c(c3cccnc3n2CC(=O)O)C1)S(=O)(=O)c1ccc(F)cc1")
"> 100 µM"
>>> test_value("CN(C)c1nc(Cc2ccc(NC(=O)c3ccc(C(F)(F)F)cc3)cc2)nc(N(C)C)c1CC(=O)O")
"> 100 µM"
>>> test_value("CN([C@@H]1CCc2c(c3ncccc3n2CC(=O)O)C1)S(=O)(=O)c1ccc(F)cc1")
"> 100 µM"
>>> test_value("CN([C@@H]1CCc2c(CC(=O)O)c3ccccc3n2C1)S(=O)(=O)c1ccc(F)cc1")
"> 100 µM"
>>> test_value("O=C(O)CCn1c2c(c3ccccc31)C[C@H](NS(=O)(=O)c1ccc(F)cc1)CC2")
"> 100 µM"
>>> test_value("CN([C@@H]1CCC2=C(C1)C1C=CC=CC1N2CC(=O)O)S(=O)(=O)c1ccc(F)cc1 (some centres undefined)")
"> 100 µM"
>>> test_value("CN([C@@H]1CCc2c(c3ccncc3n2CC(=O)O)C1)S(=O)(=O)c1ccc(F)cc1")
"> 100 µM"
>>> test_value("CN([C@@H]1CCc2c(c3ccccn3c2CC(=O)O)C1)S(=O)(=O)c1ccc(F)cc1")
"> 100 µM"

Next:
Task item: Find the measured IC50: item "Cc1c(Cc2ccc3ccccc3n2)c2cc(F)ccc2n1CC(=O)O" , target or system Prostacyclin receptor (Homo sapiens).
Reply: 57.9 µM

====

Target: Prostaglandin D2 receptor (Homo sapiens, UniProt Q13258)
Sequence (Q13258 whole entry): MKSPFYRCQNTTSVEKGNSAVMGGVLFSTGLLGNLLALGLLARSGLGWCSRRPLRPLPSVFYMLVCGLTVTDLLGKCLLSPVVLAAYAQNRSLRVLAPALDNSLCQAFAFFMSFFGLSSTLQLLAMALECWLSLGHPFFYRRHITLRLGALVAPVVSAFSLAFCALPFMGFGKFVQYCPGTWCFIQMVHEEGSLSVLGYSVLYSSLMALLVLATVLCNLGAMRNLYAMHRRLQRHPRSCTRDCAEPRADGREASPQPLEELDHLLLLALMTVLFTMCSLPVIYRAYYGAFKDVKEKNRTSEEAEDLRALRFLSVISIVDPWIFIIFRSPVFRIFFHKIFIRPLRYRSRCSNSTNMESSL
Test: Displacement of [3H]PGD2 from […] in human platelet membrane
Readout: IC50 (µM)

>>> test_value("CN([C@@H]1CCc2c(CC(=O)O)c3ncccc3n2C1)S(=O)(=O)c1ccc(F)cc1")
41.7
>>> test_value("CN([C@@H]1CCC2=C(C1)C1C=CC=CC1N2CC(=O)O)S(=O)(=O)c1ccc(F)cc1 (some centres not stated)")
2.2
>>> test_value("CN([C@@H]1CCc2c(c3cccnc3n2CC(=O)O)C1)S(=O)(=O)c1ccc(F)cc1")
9
>>> test_value("CN([C@@H]1CCc2c(c3nccnc3n2CC(=O)O)C1)S(=O)(=O)c1ccc(F)cc1")
37.8
>>> test_value("CN([C@@H]1CCc2c(CC(=O)O)c3ccccn3c2C1)S(=O)(=O)c1ccc(F)cc1")
4.4
>>> test_value("CN(C)c1nc(Cc2ccc(NC(=O)c3ccc(C(F)(F)F)cc3)cc2)nc(N(C)C)c1CC(=O)O")
25.6
>>> test_value("CN([C@@H]1CCc2c(c3ccccn3c2CC(=O)O)C1)S(=O)(=O)c1ccc(F)cc1")
31

(A) Cc1c(Cc2ccc3ccccc3n2)c2cc(F)ccc2n1CC(=O)O
(B) CN([C@@H]1CCc2c(CC(=O)O)c3ccccc3n2C1)S(=O)(=O)c1ccc(F)cc1
(C) O=C(O)CCn1c2c(c3ccccc31)C[C@H](NS(=O)(=O)c1ccc(F)cc1)CC2
Task item: # desc sort on IC50 across 3 compounds Present the labels in the sequence the task asks for.
Reply: C, A, B
